# TARGET SYSTEM: Neurogenic locus notch homolog protein 2 (Homo sapiens) (UniProt Q04721)
# Sequence (Q04721 whole entry, looked up): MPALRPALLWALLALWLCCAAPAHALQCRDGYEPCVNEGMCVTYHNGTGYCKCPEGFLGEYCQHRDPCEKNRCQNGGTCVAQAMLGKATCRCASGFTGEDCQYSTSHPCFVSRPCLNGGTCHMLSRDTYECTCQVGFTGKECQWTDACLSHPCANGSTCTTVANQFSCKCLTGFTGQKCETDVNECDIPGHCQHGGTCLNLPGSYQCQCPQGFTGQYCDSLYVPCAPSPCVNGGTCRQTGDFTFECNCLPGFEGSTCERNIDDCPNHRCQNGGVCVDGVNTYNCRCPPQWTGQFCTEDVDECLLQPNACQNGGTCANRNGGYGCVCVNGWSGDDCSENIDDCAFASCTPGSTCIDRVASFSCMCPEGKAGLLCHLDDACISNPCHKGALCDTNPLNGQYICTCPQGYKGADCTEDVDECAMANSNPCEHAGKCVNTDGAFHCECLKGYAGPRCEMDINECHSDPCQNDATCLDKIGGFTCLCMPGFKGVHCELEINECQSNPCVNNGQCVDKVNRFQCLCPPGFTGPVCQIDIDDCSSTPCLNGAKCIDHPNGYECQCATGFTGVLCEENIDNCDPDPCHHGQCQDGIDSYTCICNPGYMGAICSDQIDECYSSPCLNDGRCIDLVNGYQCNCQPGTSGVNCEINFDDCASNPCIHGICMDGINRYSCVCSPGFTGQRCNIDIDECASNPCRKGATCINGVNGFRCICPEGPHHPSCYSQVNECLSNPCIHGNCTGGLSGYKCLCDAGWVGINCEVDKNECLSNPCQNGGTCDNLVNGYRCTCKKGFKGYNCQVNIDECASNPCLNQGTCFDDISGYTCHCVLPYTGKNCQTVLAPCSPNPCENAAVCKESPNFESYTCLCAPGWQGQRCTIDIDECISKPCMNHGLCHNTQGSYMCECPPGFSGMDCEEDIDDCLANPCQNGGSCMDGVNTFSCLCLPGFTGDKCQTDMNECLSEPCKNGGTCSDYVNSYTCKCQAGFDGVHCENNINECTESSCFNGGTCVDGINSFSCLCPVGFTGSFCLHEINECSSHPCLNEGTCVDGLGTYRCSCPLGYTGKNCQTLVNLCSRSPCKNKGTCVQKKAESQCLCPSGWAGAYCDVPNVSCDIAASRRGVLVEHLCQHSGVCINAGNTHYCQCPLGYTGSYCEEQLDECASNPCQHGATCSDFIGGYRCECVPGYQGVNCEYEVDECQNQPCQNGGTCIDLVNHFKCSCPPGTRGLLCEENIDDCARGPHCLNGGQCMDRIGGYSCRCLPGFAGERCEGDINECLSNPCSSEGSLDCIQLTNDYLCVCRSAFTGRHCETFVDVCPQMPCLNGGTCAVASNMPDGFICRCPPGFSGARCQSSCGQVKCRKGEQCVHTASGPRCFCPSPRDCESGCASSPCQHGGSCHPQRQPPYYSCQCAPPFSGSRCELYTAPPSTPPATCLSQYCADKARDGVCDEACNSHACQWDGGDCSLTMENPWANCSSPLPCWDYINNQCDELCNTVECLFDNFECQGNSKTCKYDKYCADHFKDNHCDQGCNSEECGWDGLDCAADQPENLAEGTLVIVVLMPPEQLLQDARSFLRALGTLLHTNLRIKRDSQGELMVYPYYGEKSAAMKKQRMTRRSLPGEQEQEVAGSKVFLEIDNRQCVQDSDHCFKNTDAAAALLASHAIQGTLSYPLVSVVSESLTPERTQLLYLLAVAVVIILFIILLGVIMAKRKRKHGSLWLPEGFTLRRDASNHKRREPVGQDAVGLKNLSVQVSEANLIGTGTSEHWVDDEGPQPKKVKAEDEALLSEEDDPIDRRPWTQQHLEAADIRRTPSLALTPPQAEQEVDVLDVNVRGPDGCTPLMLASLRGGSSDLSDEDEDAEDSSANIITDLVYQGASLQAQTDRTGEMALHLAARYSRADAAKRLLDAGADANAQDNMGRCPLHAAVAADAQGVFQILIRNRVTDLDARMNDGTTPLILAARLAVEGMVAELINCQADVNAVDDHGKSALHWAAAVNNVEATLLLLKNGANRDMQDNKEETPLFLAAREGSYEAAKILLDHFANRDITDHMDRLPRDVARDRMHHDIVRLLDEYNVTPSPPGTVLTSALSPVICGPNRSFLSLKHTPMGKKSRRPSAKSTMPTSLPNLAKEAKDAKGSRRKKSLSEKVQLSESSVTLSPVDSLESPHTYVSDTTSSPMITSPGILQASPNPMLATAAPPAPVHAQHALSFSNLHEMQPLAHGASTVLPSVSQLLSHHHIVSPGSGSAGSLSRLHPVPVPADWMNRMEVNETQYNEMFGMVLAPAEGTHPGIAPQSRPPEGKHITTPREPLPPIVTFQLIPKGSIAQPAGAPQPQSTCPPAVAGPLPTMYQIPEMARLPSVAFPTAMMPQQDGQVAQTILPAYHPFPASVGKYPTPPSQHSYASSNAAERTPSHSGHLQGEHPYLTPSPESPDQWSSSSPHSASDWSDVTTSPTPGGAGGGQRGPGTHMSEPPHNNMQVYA
# PROCEDURE DETAILS: Notch2 binders on small-molecule microarrays, primary screen, biochemical, small-molecule microarray, 635 nm fluorescence, stem cell growth factors (AID 1073)
# EXPERIMENTAL CONDITIONS: Notch2 binding, higher = more signal
So basically: composite z-score at 1 or higher? That is 1. Lower than 1? That is -1.

1. CC(=O)N1Cc2ccccc2C[C@]2(N=C(c3ccc(OCCCO)cc3)O[C@@H]2c2ccccc2)C1=O : -1
2. C=C(COC)/C(=C/C[C@@H](OC(=O)c1ccncc1)c1ccc(OCCO)cc1)c1cnc2ccccc2c1 : 1
3. COc1ccc([Si](C)(C)[C@@H]2[C@@H](CC(=O)N3CCC[C@H]3CO)O[C@]3(C(=O)N(Cc4ccc(N5C(=O)c6cccc7cccc5c67)cc4)c4ccccc43)[C@H]2C)cc1 : -1
4. Cc1ccc(F)cc1S(=O)(=O)N[C@@H]1CCN(Cc2ccc(OC(C)C)cc2)C1 : -1
5. CON(C)C(=O)C=C1C[C@@H](c2cccc(Cl)c2)O[C@@H](c2cccc(Cl)c2)O1 : -1
6. C=CC[C@@]1(C(=O)N2CCCCC2)N=C(c2ccc(OCCCO)cc2)O[C@@H]1c1ccccc1 : -1
7. CN1C(=O)[C@@]2(CCS(=O)(=O)c3ccccc3)N=C(c3ccc(OCCCO)cc3)O[C@H]2c2ccccc21 : 1
8. COC1(C)CN(Cc2ccccc2Br)[C@H](/C=C/c2ccccc2)[C@H](Cc2ccccc2)O1 (stereo partly specified) : -1
9. COc1ccc(C#Cc2ccc3c(c2)[C@]2(C(=O)N3)[C@H](C(=O)N3CCc4cc(OC)c(OC)cc4C3)[C@H]3C(=O)O[C@H](c4ccccc4)[C@H](c4ccccc4)N3[C@@H]2c2ccc(O)cc2)cc1 : -1
10. CCCCC(CC)C(O)C1C=CC2C(=O)N(c3ccccc3)C(=O)C2N1Nc1ccc([N+](=O)[O-])cc1 (stereo unspecified) : 1
11. CC(C)C(O)C1C=CC2C(=O)N(C)C(=O)C2N1Nc1ccccc1 (stereo unspecified) : 1
12. COCCOC(=O)N1C(=O)[C@@]2(c3ccccc31)[C@H](c1ccc(OCCO)cc1)N1[C@H](c3ccccc3)[C@H](c3ccccc3)OC(=O)[C@H]1[C@@H]2C(=O)Nc1nc2ccccc2s1 : -1
13. C[C@@H]1ON(c2ccc(C(=O)OC(C)(C)C)cc2)[C@H](c2ccc(Br)cc2)[C@H]1C(=O)N1C(=O)OC[C@H]1Cc1ccccc1 : 1
14. O=C1c2ccccc2[C@](Cc2ccccc2I)(C(=O)NCCN2CCOCC2)[C@H](c2ccc(CO)cc2)N1Cc1ccccc1 : 1
15. C=C[C@@H](C)[C@H](OC(=O)Nc1ccc(SC)cc1)c1ccc(OCCO)cc1 : -1
16. CC(C)(C)OC(=O)CC[C@]1(C(=O)NCCN2CCOCC2)N=C(c2ccc(OCCCO)cc2)O[C@H]1c1ccccc1N=[N+]=[N-] : -1
17. CC(C)C(O)C1C=CC2C(=O)N(C)C(=O)C2N1N(c1ccccc1)c1ccccc1 (stereo unspecified) : -1
18. COc1cc2c(cc1OC)CN(C(=O)[C@@H]1[C@H]3C(=O)O[C@H](c4ccccc4)[C@H](c4ccccc4)N3[C@H](c3ccccc3OCCO)[C@@]13C(=O)Nc1ccc(C#CC4(O)CCCCCC4)cc13)CC2 : -1
19. O=C1OC[C@@H](c2ccccc2)N2CC(/C=C/c3ccccc3)=CC12 (stereo partly specified) : -1
20. CCCCN1CC=CC23O[C@@H]4/C=C\CCC(C)OC(=O)C4[C@H]2C(=O)N(CCCCCCO)[C@@H]3C1=O (stereo partly specified) : -1
21. CN(C)CCCNC(=O)[C@@H]1c2ccccc2C(=O)N(Cc2ccc(OC(F)(F)F)cc2)[C@H]1c1ccc(CO)cc1 : -1
22. CC(C)C(=C=CC[C@H](O)c1ccc(OCCO)cc1)C[C@H](O)c1cc(Cl)cc(Cl)c1O : -1
23. CC(C)(C)OC(=O)CC[C@]1(C(=O)O)N=C(c2ccc(OCCCO)cc2)O[C@H]1c1ccccc1 : -1
24. CCOc1cc(C(O)C2C=CC3C(=O)N(C4CCCCC4)C(=O)C3N2Nc2ccc(OC)cc2)ccc1O (stereo unspecified) : 1
25. C=CC[C@H](OC(=O)Nc1ccc(OC)cc1)c1ccc(O)c2ccccc12 : 1
26. CC[C@H]1C2=C3C(CC[C@H]4C(OCc5ccc(F)cc5C(F)(F)F)OC[C@](C)([C@@H]34)N(C(=O)OC(C)(C)C)C2)C2COC(=O)OCC21 (stereo partly specified) : 1
27. CN(C)CCCN1C(=O)[C@@]2(c3ccc([N+](=O)[O-])cc3)CC(=O)N(CC34CC5CC(CC(C5)C3)C4)[C@@H]2c2ccc(CO)cc21 : -1
28. COC(=O)[C@@]1(Cc2ccc(OC)cc2)[C@H]2c3cc(C(=O)N4CCCC4)n(CCc4cc5ccccc5[nH]4)c3C[C@H]2CN1C(=O)c1ccccc1 : 1
29. CC(=O)n1cc(C(O)C2C=CC3C(=O)N(Cc4ccccc4)C(=O)C3N2n2cnnc2)c2ccccc21 (stereo unspecified) : -1
30. COCCCNC(=O)[C@@H]1c2ccccc2C(=O)N(Cc2ccccc2C(F)(F)F)[C@H]1c1ccc(CO)cc1 : -1
31. COC(=O)[C@@]1(Cc2ccccc2)[C@H]2c3cc(C(=O)N4CCCC4)n(Cc4cc(F)cc5c4OCOC5)c3C[C@H]2CN1C(=O)c1ccccc1 : 1

Reference source: PubChem BioAssay
